Biological target: T1, ASB7-Elongin B-Elongin C ternary complex (wild-type ASB7, residues 11-318) (human, UniProt Q9H672 11-318; Q15370 1-104; Q15369 17-112)
T1 construct: human ASB7, residues 11-318; human Elongin B, residues 1-104; also called ASB7-Elongin B/C; WT; source: E. coli BL21 (DE3), co-expressed, purified (Ni-NTA, Superdex 200); not shown: SUMO, N-terminal, cleaved; copies: + +
T1 sequence (Q9H672 11-318, chain 1 of 3): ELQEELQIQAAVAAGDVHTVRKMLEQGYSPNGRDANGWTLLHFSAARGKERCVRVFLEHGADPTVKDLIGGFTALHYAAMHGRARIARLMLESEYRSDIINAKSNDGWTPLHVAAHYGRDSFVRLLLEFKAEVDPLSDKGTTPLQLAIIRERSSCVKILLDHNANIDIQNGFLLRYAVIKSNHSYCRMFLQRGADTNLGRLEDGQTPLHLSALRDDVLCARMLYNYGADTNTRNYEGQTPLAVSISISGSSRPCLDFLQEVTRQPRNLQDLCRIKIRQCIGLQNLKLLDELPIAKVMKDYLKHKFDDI
T1 sequence (Q15370 1-104, chain 2 of 3): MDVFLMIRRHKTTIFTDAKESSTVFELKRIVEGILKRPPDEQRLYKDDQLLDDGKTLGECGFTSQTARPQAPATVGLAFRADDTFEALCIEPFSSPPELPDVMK
T1 sequence (Q15369 17-112, chain 3 of 3): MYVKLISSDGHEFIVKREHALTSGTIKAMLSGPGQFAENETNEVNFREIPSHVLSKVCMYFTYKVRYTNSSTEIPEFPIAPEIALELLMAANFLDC
Test: ITC; peptide in the syringe titrated into ASB7-Elongin B/C in the cell; MicroCal PEAQ-ITC, 16 °C, 20 mM Tris-HCl pH 7.5, 150 mM NaCl; 39–156 μM protein, 0.8–4 mM peptide; repeated three times, mean ± SD
Conditions: both partners purified
MEASURED METRIC: Kd (nM)
Your answer is read as nM, so omit the unit and give the number.

# annotated cases, reported Kd shown
- ELESLMKEQDLLETKLRSYER (LZTS1 degron shortened by two residues at the N-terminus; source: synthetic peptide (Shanghai Apeptide Co., Ltd.)) [LZTS1 degron peptide, 21 residues (ELESLMKEQDLLETKLRSYER)]: 700
- LEQEIRELQAEAGRTRGALEVLG (stretch of CCDC17, a reported ASB7 substrate; also called CCDC17 peptide; source: synthetic peptide (Shanghai Apeptide Co., Ltd.)) [CCDC17 degron peptide]: 1100
- EDDEGLKHLQQEAEKLVASLQDS (stretch of GIGYF1, a reported ASB7 substrate; source: synthetic peptide (Shanghai Apeptide Co., Ltd.)) [GIGYF1 degron peptide]: 1000

Could you now consider this next binder?
(Q) What measured Kd goes with ELESLMKEQDLLETKLR (LZTS1 degron, positions E1 to R17 of the degron numbering; also called 17-residue degron; source: synthetic peptide (Shanghai Apeptide Co., Ltd.)) [LZTS1 degron peptide, 17 residues (ELESLMKEQDLLETKLR)] ?
(A) 5100
